Target under test: GDP-bound protein (aa 1-169), containing both G12C and C118A amino acid substitutions (Homo sapiens, UniProt P01116, C118A/G12C)
Sequence (P01116 1-169 isoform P01116-2 G12C/C118A): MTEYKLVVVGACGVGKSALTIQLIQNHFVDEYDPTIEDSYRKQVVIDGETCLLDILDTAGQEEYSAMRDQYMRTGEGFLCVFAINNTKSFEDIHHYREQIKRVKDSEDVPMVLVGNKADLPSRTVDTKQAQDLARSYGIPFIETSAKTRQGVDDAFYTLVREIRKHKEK
Test: Coupled Nucleotide Exchange Assay (SOS-mediated nucleotide exchange, AlphaScreen)
Assay type: biochemical
Details: 2 hours compound pre-incubation
Measurement kind: Coupled exchange IC50 (nM)
The figure you give is taken to be in nM; do not add the unit.

Query block: Answer with the recorded Coupled exchange IC50 of C=CC(=O)N1CCN(c2snc3c(F)c(-c4c[nH]c5ccccc45)c(Cl)cc23)CC1 [Example 1-2] only.
Result block: 2380

Query block: Give the value of Coupled exchange IC50 reported for the following: C=CC(=O)N1CCN(c2nc(=O)n(-c3ccccc3C(C)C)c3nc(-c4c(O)cccc4F)c(Cl)cc23)[C@@H](C)C1 (single isomer, unassigned) [Example 8-6-1]
Result block: 66

Query block: Quickly give me recorded Coupled exchange IC50 for C=CC(=O)N1CCN(c2snc3c(F)c(-c4c(O)ccc5ccccc45)c(Cl)cc23)CC1 [Example 1-14]
Result block: 1780

Query block: Supply measured Coupled exchange IC50 of C=CC(=O)N1CCN(c2snc3c(F)c(-c4c(C)ccc5[nH]ncc45)c(Cl)cc23)CC1 [Example 3-5] in your reply.
Result block: 693
